Measurement Protocol: Tissue levels after a single oral administration in mice (microbiological assay)
Assay type: in vivo
Condition Summary: mouse, liver, 50 mg/kg oral, 6.0 hour; read-out: Liver concentration
Readout Kind: concentration at 6 h (ng/mL)
API: value field is a number in ng/mL; no unit string.

For the compound CCn1cc(C(=O)O)c(=O)c2cc(F)c(N3CCN(Cc4ccc(N)cc4)CC3)c(F)c21 [compound (I)] , give its reported concentration at 6 h.
5800

* * *

Measurement Protocol: Tissue levels after a single oral administration in rats (microbiological assay)
Type: in vivo
Condition Summary: rat, kidney, 50 mg/kg oral, 6.0 hour; read-out: Kidney concentration
Readout Kind: concentration at 6 h (ng/mL)
API: value field is a number in ng/mL; no unit string.

For the molecule CCn1cc(C(=O)O)c(=O)c2cc(F)c(N3CCN(Cc4ccc(N)cc4)CC3)c(F)c21 [compound (I)] , give its reported concentration at 6 h.
300

* * *

Measurement Protocol: Tissue levels after a single oral administration in rats (microbiological assay)
Assay type: in vivo
Condition Summary: rat, liver, 50 mg/kg oral, 1.0 hour; read-out: Liver concentration
Readout Kind: concentration at 1 h (ng/mL)
API: value field is a number in ng/mL; no unit string.

For the compound CCn1cc(C(=O)O)c(=O)c2cc(F)c(N3CCN(Cc4ccc(N)cc4)CC3)c(F)c21 , give its reported concentration at 1 h.
15400

* * *

Measurement Protocol: Tissue levels after a single oral administration in mice (microbiological assay)
Assay type: in vivo
Condition Summary: mouse, lung, 50 mg/kg oral, 0.5 hour; read-out: Lung concentration
Readout Kind: concentration at 0.5 h (ng/mL)
API: value field is a number in ng/mL; no unit string.

For the compound CCn1cc(C(=O)O)c(=O)c2cc(F)c(N3CCN(Cc4ccc(N)cc4)CC3)c(F)c21 [compound (I)] , give its reported concentration at 0.5 h.
12800

* * *

Measurement Protocol: Tissue levels after a single oral administration in mice (microbiological assay)
Assay type: in vivo
Condition Summary: mouse, serum, 50 mg/kg oral, 1.0 hour; read-out: Serum concentration
Readout Kind: concentration at 1 h
Kindly format the answer as number then unit.

For the molecule CCn1cc(C(=O)O)c(=O)c2cc(F)c(N3CCN(Cc4ccc(N)cc4)CC3)c(F)c21 [compound (I)] , give its reported concentration at 1 h.
6500 ng/mL

* * *

Measurement Protocol: Tissue levels after a single oral administration in mice (microbiological assay)
Type: in vivo
Condition Summary: mouse, serum, 50 mg/kg oral, 6.0 hour; read-out: Serum concentration
Readout Kind: concentration at 6 h (ng/mL)
API: value field is a number in ng/mL; no unit string.

For the molecule CCn1cc(C(=O)O)c(=O)c2cc(F)c(N3CCN(Cc4ccc(N)cc4)CC3)c(F)c21 [compound (I)] , give its reported concentration at 6 h.
1800

* * *

Measurement Protocol: Tissue levels after a single oral administration, mice and rats together
Format: in vivo
Condition Summary: serum; mice and rats, single oral 50 mg/kg; read-out: Time to peak serum level
Protocol: Tissue levels of the compound (I) after a single oral administration of 50 mg/kg in mice and rats Tissue levels of the compound (I) were determined by micro-biological assay which employed the thin layer cup method with Bacillus subtilis ATCC6633 as the test organism. Serum and tissue levels of the compound (I) were calculated with the standard curve prepared in normal serum of the test animal species and M/15 phosphate buffer (pH 7.5), respectively.
Readout Kind: Tmax

For the compound CCn1cc(C(=O)O)c(=O)c2cc(F)c(N3CCN(Cc4ccc(N)cc4)CC3)c(F)c21 [compound (I)] , give its reported Tmax.
30 to 60 min
